Test: Ratio of drug level in brain to plasma in ddY mouse at 3 mg/kg, po after 60 mins
Format: ADME, organism-based
Parameters: dose 3 mg/kg, route oral
Details: brain and plasma, read-out: BPR
ENDPOINT_NAME: Kp at 1 h

COMPOUND | ENDPOINT_NAME | TEST_VALUE
N#Cc1ccccc1-c1cc(-c2ccccn2)cn(-c2ccccc2)c1=O [PERAMPANEL] | Kp at 1 h | 1.06

---

Test: Volume of distribution at steady state in Sprague-Dawley rat at 1 mg/kg, iv
Format: ADME, organism-based
Design: dose 1 mg/kg, route intravenous
Conditions: in vivo, read-out: Vdss

RECORD_SMILES | Vd
N#Cc1ccccc1-c1cc(-c2ccccn2)cn(-c2ccccc2)c1=O | 4.56 L/kg

---

Assay: Plasma clearance in Sprague-Dawley rat at 1 mg/kg, iv
Format: ADME, organism-based
Set-up: dose 1 mg/kg, route intravenous

MOLECULE | clearance
N#Cc1ccccc1-c1cc(-c2ccccn2)cn(-c2ccccc2)c1=O [PERAMPANEL] | 30.3 mL/min/kg

---

As shown below, each of these compounds has a reported minimal effective dose value.
Test system: Mus musculus
Assay: Anticonvulsant activity in po dosed ddY mouse AMPA-induced seizure model
Type: functional
Settings: read-out: MED
ENDPOINT_NAME: minimal effective dose (mg/kg)

COMPOUND | ENDPOINT_NAME | TEST_VALUE
O=c1c(-c2cccnc2F)cc(-c2ccccn2)cn1-c1ccccc1 | minimal effective dose | 5
N#Cc1ccccc1-c1cc(-c2ccccn2)cn(-c2ccccc2)c1=O [PERAMPANEL] | minimal effective dose | 2
N#Cc1sccc1-c1cc(-c2ccccn2)cn(-c2cccnc2)c1=O | minimal effective dose | 25
O=c1c(-c2ccccc2Cl)cc(-c2ccccn2)cn1-c1cccnc1 | minimal effective dose | 25
N#Cc1ccccc1-c1cc(-c2ccccc2)cn(-c2ccccc2)c1=O | minimal effective dose | 25

---

Test: Half life in healthy human
Format: ADME, organism-based
Conditions: in vivo
ENDPOINT_NAME: half-life

RECORD_SMILES | ENDPOINT_NAME | TEST_VALUE
N#Cc1ccccc1-c1cc(-c2ccccn2)cn(-c2ccccc2)c1=O | half-life | 70 h

---

Experiment: Cmax in Sprague-Dawley rat at 1 mg/kg, po
Type: ADME, organism-based
Parameters: dose 1 mg/kg, route oral
Details: in vivo

MOLECULE | Cmax, ng/mL
N#Cc1ccccc1-c1cc(-c2ccccn2)cn(-c2ccccc2)c1=O [PERAMPANEL] | 170
